System: Acinetobacter baumannii
Test: Antibacterial activity against Acinetobacter baumannii ATCC 19606 after 18 hrs by 2 fold serial dilution method
Format: functional
Conditions: ATCC 19606, 18 h
Numbered stars: 1 amine (or outer) side, 2 acyl side, 3 side chain; on linkers, the order of the positions; unused ones are H or OH. Bridge positions count the residues as written; N and C are the ends. Square brackets hold non-standard residues; d marks the D form. Peptide text beside a SMILES is read from it. * marks the point of attachment. dGly(nOct) = CCCCCCCC[C@@H](N)C(=O)O; Gly(octyl) = CCCCCCCC[C@H](N)C(=O)O; NH(2-ClPh) = Clc1ccccc1N*; dDab = NCC[C@@H](N)C(=O)O; Octanoyl = CCCCCCCC(=O)*; Dab = NCC[C@H](N)C(=O)O; CO = O=C([*:1])[*:2]
testReadout: MIC (µg/mL)
Numbers only; they are read as µg/mL.

Query block: Please look at this compound and report its MIC: CCCCCCCC(=O)N[C@@H](CCN)C(=O)N[C@H](C(=O)N[C@H](CO)C(=O)N[C@H]1CCNC(=O)[C@H]([C@@H](C)O)NC(=O)[C@H](CCN)NC(=O)[C@H](CCN)NC(=O)[C@H](CC(C)C)NC(=O)[C@@H](Cc2ccccc2)NC(=O)[C@H](CCN)NC1=O)[C@@H](C)O (Octanoyl-[Dab]T[dS][Dab][Dab][dF]L[Dab][Dab]T; lactam 4-C)
Result block: 1

Query block: Specify reported MIC for the compound shown: CCCCCCCC[C@@H]1NC(=O)[C@@H](Cc2ccccc2)NC(=O)[C@H](CCN)NC(=O)[C@@H](NC(=O)[C@H](CCN)NC(=O)[C@@H](NC(=O)[C@H](CCN)NC(=O)CCCCCCC)[C@@H](C)O)CCNC(=O)[C@H]([C@@H](C)O)NC(=O)[C@H](CCN)NC(=O)[C@H](CCN)NC1=O (Octanoyl-[Dab]T[Dab][Dab][Dab][dF][Gly(octyl)][Dab][Dab]T; lactam 4-C)
Result block: 2

Query block: Give the measured MIC for CCCCCCCC(=O)N[C@@H](CCN)C(=O)N[C@H](C(=O)N[C@@H](CCN)C(=O)N[C@H]1CCNC(=O)[C@H]([C@@H](C)O)NC(=O)[C@H](CCN)NC(=O)[C@H](CCN)NC(=O)[C@H](CC(C)C)NC(=O)[C@@H](Cc2ccccc2)NC(=O)[C@H](CCN)NC1=O)[C@@H](C)O (Octanoyl-[Dab]T[Dab][Dab][Dab][dF]L[Dab][Dab]T; lactam 4-C)
Result block: 0.5

Query block: Name the recorded MIC of the compound listed here: CC(C)C[C@@H]1NC(=O)[C@@H](Cc2ccccc2)NC(=O)[C@H](CCN)NC(=O)[C@@H](NC(=O)[C@@H](CCN)NC(=O)[C@@H](NC(=O)[C@H](CCN)NC(=O)Nc2ccccc2Cl)[C@@H](C)O)CCNC(=O)[C@H]([C@@H](C)O)NC(=O)[C@H](CCN)NC(=O)[C@H](CCN)NC1=O ({NH(2-ClPh)-CO}-[Dab]T[dDab][Dab][Dab][dF]L[Dab][Dab]T; lactam 4-C)
Result block: 2

Query block: Input CCCCCCCC[C@H]1NC(=O)[C@H](CCN)NC(=O)[C@@H](NC(=O)[C@H](CCN)NC(=O)[C@@H](NC(=O)[C@H](CCN)NC(=O)CCCCCCC)[C@@H](C)O)CCNC(=O)[C@H]([C@@H](C)O)NC(=O)[C@H](CCN)NC(=O)[C@H](CCN)NC(=O)[C@H](CC(C)C)NC1=O (Octanoyl-[Dab]T[Dab][Dab][Dab][dGly(nOct)]L[Dab][Dab]T; lactam 4-C) , output reported MIC.
Result block: 1
